Target: Sut1 (UniProt P53032)
Sequence: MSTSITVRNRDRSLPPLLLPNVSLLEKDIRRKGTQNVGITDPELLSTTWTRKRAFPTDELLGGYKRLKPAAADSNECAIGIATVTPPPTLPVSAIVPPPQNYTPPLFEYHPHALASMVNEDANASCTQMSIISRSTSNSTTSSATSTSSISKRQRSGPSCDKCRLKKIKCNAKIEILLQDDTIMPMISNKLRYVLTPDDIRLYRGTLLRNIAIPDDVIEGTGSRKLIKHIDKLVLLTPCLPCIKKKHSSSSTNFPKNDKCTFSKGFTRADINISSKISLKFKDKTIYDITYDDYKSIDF
Assay: PBM E-score (8-mer binding enrichment) (E-score (-0.5 to 0.5)); higher = stronger / more preferred TF binding
Conditions: protein concentration: 200 nM; construct: GST-full length
The full ranking holds about 33,000 sequences; the median of “E-score (-0.5 to 0.5)” is about -0.017, and the highest 2% start at about 0.3. Many of the other results were omitted from the sample, so the highest values are more common in it than they were.
Readout kind: PBM E-score
// print number alone

See these solved cases before continuing.
GCAACGGA :: 0.306
TGTCGGAA :: 0.218
ATCCGTAC :: 0.178
TATGAACA :: 0.0917
GGCAGAAA :: 0.0918
AGTCGGAG :: 0.316
GACCGTAA :: -0.0628
CTCCGTAC :: 0.331
GTCCGTAA :: 0.342
ACAACGGA :: 0.335

Okay, next one:
QUERY: For GCAACGGC , what is its reported PBM E-score?
RESULT: -0.0987

---

Reported PBM E-score values for the following sequences.
Target: Sut1 (UniProt P53032)
Sequence: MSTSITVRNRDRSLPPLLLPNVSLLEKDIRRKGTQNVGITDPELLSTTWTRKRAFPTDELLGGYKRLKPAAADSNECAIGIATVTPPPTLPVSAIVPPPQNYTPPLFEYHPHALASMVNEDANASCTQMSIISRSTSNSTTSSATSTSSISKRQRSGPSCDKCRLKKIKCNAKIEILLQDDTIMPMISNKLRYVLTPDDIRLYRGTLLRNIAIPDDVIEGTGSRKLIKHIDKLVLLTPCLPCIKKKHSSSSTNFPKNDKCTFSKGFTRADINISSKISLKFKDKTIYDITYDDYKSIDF
Assay: PBM E-score (8-mer binding enrichment) (E-score (-0.5 to 0.5)); higher = stronger / more preferred TF binding
Conditions: protein concentration: 200 nM; construct: GST-full length
Over roughly 33,000 sequences, “E-score (-0.5 to 0.5)” has its median near -0.017; the highest 2% begin near 0.3. Many of the other results were omitted from the sample, so the highest values are more common in it than they were.
Provide a numeric answer; units are not to be included.

QUERY: Given CGGTTTTC , state its recorded PBM E-score.
RESULT: 0.176

QUERY: // repeat for TGTTTTAA and report
RESULT: 0.253

QUERY: Now try CACAGTAC .
RESULT: -0.0582

QUERY: TAGTCCAA ?
RESULT: -0.01

QUERY: Note, next up: AAATAAAA
RESULT: 0.234

QUERY: What would you report for ATGTAATG ?
RESULT: 0.23

QUERY: And what about the sequence CTAATATA ?
RESULT: 0.225

QUERY: // next record CTGTAATA
RESULT: 0.218

QUERY: And AAATAACT ?
RESULT: 0.228

QUERY: What about this sequence? CAGTCCGC
RESULT: 0.196

QUERY: Next: TAGTCCCA
RESULT: -0.21

QUERY: // next record AAATAATC
RESULT: 0.235

QUERY: What would you report for AATTATAT ?
RESULT: 0.212

QUERY: Same question, CGAGGGTC this time
RESULT: -0.194

QUERY: Another sequence to check: CAGTCCGG
RESULT: 0.353

QUERY: Now the same for AAATAAAT
RESULT: 0.329
